The values you see were collected from the supplement of paper PMC8728848.

Biological target: Gal(a1-3)GalNAc
Assay: glycan array binding signal (z-score within array); higher = stronger binding
Settings: glycan notation: IUPAC condensed, linker removed
Shown is part of a subset that was picked to be rich in the strongest signals.
Reported Metric: glycan array binding signal (z-score)
# print the numeric value only

Some solved entries appear below for comparison.
Binder	Recorded Measurement
Codakine (Codakia orbicularis), Q3KVL7_9BIVA (protein) MKILVAVFLVLVVVGTAAAGCPDGWTQFLDLCYIYQSAKASWASAQSSCQALGGILAEPDTACENEVLIHMCRENGDAGSFGPWLGGQKVGGAWQWSSSGAAFDYLRWGPNEPNNSGGNEDCLHYNWLSWNDLRCHYQASYLCQRAAE	-0.298
Banana lectin (Musa acuminata) (protein) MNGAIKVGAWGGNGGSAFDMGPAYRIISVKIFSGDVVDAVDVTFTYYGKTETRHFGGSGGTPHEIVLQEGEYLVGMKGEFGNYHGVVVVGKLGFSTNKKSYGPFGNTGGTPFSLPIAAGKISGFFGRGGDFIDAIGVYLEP	-0.194

Prompt: # get_value(readout='glycan array binding signal (z-score)', item= Gal 9 (Canis lupus) (protein) MAFSSSQPPYLSPGVPFSGKIQGGLQDGLKITINGTILYCNGTRFAVNFHSGHSDSDIAFHFNPRFEEGGYVVCNTKQKGSWGSEERKMQMPFQMGNPFELCFMVNSCDFKVTVNGSHFTQYSHRVPFHYVDTLSITGAVQLSYISFQSPGVWQSSSAPITQTVIHTVQTTPGQPFPNPIIPPTAYPTPTYPMPFFTSIPGGLYPSKSIIVSGTVLPGAKRFHINLRSGNDIAFHLNPRFNENTVVRNMQINNSWGSEERSLPRKMPFVQGQSFSVWIMCEGHCFKVAVDGEHLFEYYHRLKNLLAINNMEVAGDVQLTHVQT )
Completion: -0.296
